system: Stenotrophomonas maltophilia; assay: Antimicrobial activity against Stenotrophomonas maltophilia assessed as inhibition of growth incubated for 18 hrs by CLSI guidelines based assay; format: functional
Exercise: state measured log10 MIC for each of the compounds provided.
Friendly reminder: values = log10 of MIC, unit µg/mL.

# annotated cases, reported log10 MIC shown
| Compound String | Property Measured | Observed |
| --- | --- | --- |
| CCCC[N+](C)(C)CCCCCOc1cc(OCCCCC[N+](C)(C)CCCC)cc(OCCCCC[N+](C)(C)CCCC)c1.[Br-].[Br-].[Br-] | log10 MIC | 2.11 |
| C[N+](C)(CCCCOc1cc(OCCCC[N+](C)(C)CCCOc2ccccc2)cc(OCCCC[N+](C)(C)CCCOc2ccccc2)c1)CCCOc1ccccc1.[Br-].[Br-].[Br-] | log10 MIC | 1.81 |
| C[N+](C)(CCCCCOc1cc(OCCCCC[N+](C)(C)CCCCOc2ccccc2)cc(OCCCCC[N+](C)(C)CCCCOc2ccccc2)c1)CCCCOc1ccccc1.[Br-].[Br-].[Br-] | log10 MIC | 0.60 |

Could you tell me log10 MIC for each of these compounds? They are listed below.
1. C[N+](C)(CCCCCOc1cc(OCCCCC[N+](C)(C)CCCCc2ccccc2)cc(OCCCCC[N+](C)(C)CCCCc2ccccc2)c1)CCCCc1ccccc1.[Br-].[Br-].[Br-]
2. C[N+](C)(CCCCOc1ccccc1)CCCCOc1cc(OCCCC[N+](C)(C)CCCCOc2ccccc2)cc(OCCCC[N+](C)(C)CCCCOc2ccccc2)c1.[Br-].[Br-].[Br-]
3. CCCCCCCCCC[N+](C)(C)CCCCCOc1cc(OCCCCC[N+](C)(C)CCCCCCCCCC)cc(OCCCCC[N+](C)(C)CCCCCCCCCC)c1.[Br-].[Br-].[Br-]
4. C[N+](C)(CCCCCOc1cc(OCCCCC[N+](C)(C)CCCOc2ccccc2)cc(OCCCCC[N+](C)(C)CCCOc2ccccc2)c1)CCCOc1ccccc1.[Br-].[Br-].[Br-]

[0.30, 1.51, 0.60, 0.30]
